Tested on: OVCAR-5 complex spheroids with HUVEC/MSC, viability, % test/control
Assay: Anticancer human tumor OVCAR-5 cell line growth inhibition [AhR];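 also: spheroids exposed to compounds for 7 days; 100% = DMSO vehicle control wells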
Details: second compound 1 µM; first compound 10 µM; active compounds read low
Would you mind telling me the reported viability, T/C of each entry?
Give bare numbers, in %.

// below: answered compounds
>  <compound>
NS(=O)(=O)OCC1CC(n2ccc3c(NC4CCc5ccccc54)ncnc32)CC1O (centres undefined) + Cc1cncc(-c2nc(NCCc3c[nH]c4ccccc34)c3ncn(C(C)C)c3n2)c1

>  <displayUnit>
%

>  <viability, T/C>
10.7

$$$$
>  <compound>
CC(C)c1c(-c2ccccc2)nc2c(C#N)c[nH]n2c1=O + Cc1ccccc1N=Nc1ccc(NC(=O)c2ccnn2C)c(C)c1

>  <displayUnit>
%

>  <viability, T/C>
111

$$$$
>  <compound>
COc1cccc2c1C(=O)c1c(O)c3c(c(O)c1C2=O)CC(O)(C(=O)CO)CC3OC1CC(N)C(O)C(C)O1 (centres undefined) + Cc1ccccc1N=Nc1ccc(NC(=O)c2ccnn2C)c(C)c1

>  <displayUnit>
%

>  <viability, T/C>
1

$$$$
>  <compound>
O=C(C=Cc1cccc(S(=O)(=O)Nc2ccccc2)c1)NO + CC(CO)NC(=O)c1cc(-c2ccc(Cl)cc2)nn(-c2cnn(C)c2)c1=O

>  <displayUnit>
%

>  <viability, T/C>
5.69

$$$$
>  <compound>
COc1cccc2c1C(=O)c1c(O)c3c(c(O)c1C2=O)CC(O)(C(=O)CO)CC3OC1CC(N)C(O)C(C)O1 (centres undefined) + CC(CO)NC(=O)c1cc(-c2ccc(Cl)cc2)nn(-c2cnn(C)c2)c1=O

>  <displayUnit>
%

>  <viability, T/C>
0.86

$$$$

For each of the compounds below, state viability, T/C.
1. Nc1ccn(C2OC(CO)C(O)C2(F)F)c(=O)n1 (centres undefined) + Cc1cncc(-c2nc(NCCc3c[nH]c4ccccc34)c3ncn(C(C)C)c3n2)c1
2. COc1cc(C2c3cc4c(cc3C(OC3OC5COC(C)OC5C(O)C3O)C3COC(=O)C23)OCO4)cc(OC)c1O (centres undefined) + CC(CO)NC(=O)c1cc(-c2ccc(Cl)cc2)nn(-c2cnn(C)c2)c1=O
3. O=C(C=Cc1cccc(S(=O)(=O)Nc2ccccc2)c1)NO + Cc1ccccc1N=Nc1ccc(NC(=O)c2ccnn2C)c(C)c1
4. Nc1ccn(C2OC(CO)C(O)C2(F)F)c(=O)n1 (centres undefined) + Cc1ccccc1N=Nc1ccc(NC(=O)c2ccnn2C)c(C)c1

A:
[32, 40.3, 5.11, 27.9]
